# System: SW-620
# TEST_SUMMARY: NCI tumour cell line growth inhibition, 48 h
The source made the active and inactive calls. No stated cut-off is given here; in the data, active = GI50 up to about 1.1 µM and inactive = higher.
REPORTED_ENDPOINT: GI50

Here's what some known entries look like.
MOLECULE	GI50
CC(=O)Nc1ccc2c(c1)[nH]c(=O)c1cc(Cl)ccc12	27.7 µM (inactive)
CC1=NN(C(=O)CSc2nc3ccc(I)cc3c(=O)n2Cc2ccccc2)C(=O)C1	46.5 µM (inactive)
COc1cccc(-c2cc(O)c3cc4c(cc3n2)OCO4)c1	0.034 µM (active)
COc1ccc(C2NC(=S)Nc3c2c(=O)oc2c3ccc3ccccc32)cc1 (stereo unspecified)	> 100 µM (inactive)
C[Si](C)(C)/C(Br)=C\CCN1C(=O)CCC1=O	> 100 µM (inactive)

Go through the items and report each one's GI50.
1. COC(=O)CN(C)P(=O)(N1CC1)N1CC1
2. NCCCN(CCCCN(CCCN)Cc1ccc2ccccc2c1)Cc1ccc2ccccc2c1

1. > 100 µM (inactive)
2. 2.43 µM (inactive)

Go through the items and report each one's GI50.
1. Nc1ccc(C(=O)/C=C/c2ccccc2O)cc1
2. COc1cc(/C=C2\[C@H]3c4c(c(OC)c(C)c(OC)c4OC)C[C@@H](C(=O)N2Cc2ccccc2)N3C(=O)OC(C)C)c(OC)c(C)c1OC
3. c1ccc(NCn2cnc3ccccc32)cc1

1. > 100 µM (inactive)
2. 54 µM (inactive)
3. 35.6 µM (inactive)

Name the recorded GI50 for COc1cccc(-c2cccc(SC)n2)n1 .
32 µM (inactive)
